molecular target: T1, HLA-A2/E6(29-38) tetramer (human; HPV 16); assay: flow cytometry, tetramer + anti-CD8; transfected mix of CD8- and CD8+ Jurkat-derived cells;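 further: CD4+ and CD4+/CD8+ cell mixtures transiently given TCR plasmids, analysed 48 h post-transfection by flow cytometry with E6(29-38)–HLA-A*02:01 tetramer plus anti-CD8 antibody co-stain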
T1 construct: also called E6(29-38) peptide-MHC tetramer; E6 tet
Property: % cells E6 tet+/CD8+ quadrant; scope: individual binders

BINDER	% cells E6 tet+/CD8+ quadrant / %
TCR 19 (codon-optimized, cysteine-modified) (TCR, V domains shown) V domain 1: AQKITQTQPGMFVQEKEAVTLDCTYDTSDQSYGLFWYKQPSSGEMIFLIYQGSYDEQNATEGRYSLNFQKARKSANLVISASQLGDSAMYFCAMRENTGTASKLTFGTGTRLQVTL V domain 2: DVKVTQSSRYLVKRTGEKVFLECVQDMDHENMFWYRQDPGLGLRLIYFSYDVKMKEKGDIPEGYSVSREKKERFSLILESASTNQTSMYLCASSSWGQSTGEQYFGPGTRLTVTE	35.5
TCR 15 (codon-optimized, cysteine-modified) (TCR, V domains shown) V domain 1: AQKITQTQPGMFVQEKEAVTLDCTYDTSDQSYGLFWYKQPSSGEMIFLIYQGSYDEQNATEGRYSLNFQKARKSANLVISASQLGDSAMYFCAMKPGGYNKLIFGAGTRLAVHP V domain 2: DAGVIQSPRHEVTEMGQEVTLRCKPISGHNSLFWYRQTMMRGLELLIYFNNNVPIDDSGMPEDRFSAKMPNASFSTLKIQPSEPRDSAVYFCASSLVGRSRTEQYFGPGTRLTVTE	21.4
TCR 21 (codon-optimized, cysteine-modified) (TCR, V domains shown) V domain 1: AQKITQTQPGMFVQEKEAVTLDCTYDTSDQSYGLFWYKQPSSGEMIFLIYQGSYDEQNATEGRYSLNFQKARKSANLVISASQLGDSAMYFCAMREGRVTGGGNKLTFGTGTQLKVEL V domain 2: NAGVTQTPKFQVLKTGQSMTLQCAQDMNHNSMYWYRQDPGMGLRLIYYSASEGTTDKGEVPNGYNVSRLNKREFSLRLESAAPSQTSVYFCASRPWGNQNTEAFFGQGTRLTVVE	28.8
TCR 16 (codon-optimized, cysteine-modified) (TCR, V domains shown) V domain 1: KQEVTQIPAALSVPEGENLVLNCSFTDSAIYNLQWFRQDPGKGLTSLLLIQSSQREQTSGRLNASLDKSSGRSTLYIAASQPGDSATYLCAVRPANNNDMRFGAGTRLTVKP V domain 2: DVKVTQSSRYLVKRTGEKVFLECVQDMDHENMFWYRQDPGLGLRLIYFSYDVKMKEKGDIPEGYSVSREKKERFSLILESASTNQTSMYLCASSLWGRSNQPQHFGDGTRLSILE	35.6
TCR 23 (codon-optimized, cysteine-modified) (TCR, V domains shown) V domain 1: AQKITQTQPGMFVQEKEAVTLDCTYDTSDQSYGLFWYKQPSSGEMIFLIYQGSYDEQNATEGRYSLNFQKARKSANLVISASQLGDSAMYFCAMSPPGGSARQLTFGSGTQLTVLP V domain 2: DVKVTQSSRYLVKRTGEKVFLECVQDMDHENMFWYRQDPGLGLRLIYFSYDVKMKEKGDIPEGYSVSREKKERFSLILESASTNQTSMYLCASSPWGQSNQPQHFGDGTRLSILE	52.5

Source listed as patent US20210284709A1.
